Hey, just so you know, these numbers are from PubChem BioAssay.

Reported cell count values are given for each entry in this list.
- Protocol Details: inhibitors of TNFa-induced NFkB p65 translocation, primary screen, imaging, HUVEC, MLSMR starter and 10KST1 sets (AID 438);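 also: compound added about 3h40 before a 20 min TNFalpha stimulation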
- Measurement Conditions: HUVEC TNFa-induced p65 nuclear translocation; measured here: nuclei count (cytotoxicity indicator), at 2.08 µM
Metric Name: cell count

{"Compound": "CCCCCOc1ccccc1C(=O)NCC(=O)O", "Reported Result": 376}
{"Compound": "O=C(O)C1CC=CCC1C(=O)Nc1cc(Cl)ccc1Cl (stereo unspecified)", "Reported Result": 389}
{"Compound": "CCc1cccc(NC(=O)CCc2nc(-c3cccs3)no2)c1", "Reported Result": 681}
{"Compound": "COc1c(Br)cc2c(C)c(C(=O)O)oc2c1Br", "Reported Result": 472}
{"Compound": "Cc1cccc(NC(=O)c2c(C)cc(=O)oc2C)n1", "Reported Result": 522}
{"Compound": "Cc1ccc(C2/C(=C(\\O)c3ccc4c(c3)OCCO4)C(=O)C(=O)N2CCCN(C)C)o1 (stereo unspecified)", "Reported Result": 360}
{"Compound": "Cn1c(Cn2cnc(Cl)c2Cl)nc2ccccc21", "Reported Result": 583}
{"Compound": "CCN1CCN(C(CNC(=O)c2ccc3c(c2)OCO3)c2cccnc2)CC1 (stereo unspecified)", "Reported Result": 796}
{"Compound": "Cc1ccc(-n2nnnc2SCC(=O)Nc2c(C)n(C)n(-c3ccccc3)c2=O)cc1", "Reported Result": 637}
{"Compound": "CNC(=O)c1ccc(N(Cc2ccccc2C)S(C)(=O)=O)cc1", "Reported Result": 710}
{"Compound": "O=C(CSc1nnc(CNC(=O)c2cccs2)o1)NCCc1ccccc1", "Reported Result": 644}
{"Compound": "COc1ccc(S(=O)(=O)N2CCCC(C(=O)NCc3ccccn3)C2)cc1 (stereo unspecified)", "Reported Result": 291}
{"Compound": "CNC(=O)c1ccsc1NC(=O)CN1C(=O)CCC1=O", "Reported Result": 469}
{"Compound": "CCC(NC(=O)Nc1nccs1)(C(F)(F)F)C(F)(F)F", "Reported Result": 600}
{"Compound": "Cn1c(=O)cc(OCCCC(=O)Nc2ccc3c(c2)OCCO3)c2ccccc21", "Reported Result": 361}
{"Compound": "COc1ccccc1C(=O)N1CCN(C(=O)COc2cccc(C)c2)CC1", "Reported Result": 430}
{"Compound": "CC(C)C(c1nnnn1C1CCCC1)N1CCCc2ccccc21 (stereo unspecified)", "Reported Result": 706}
{"Compound": "COc1ccc2c(c1)c(C(=O)CN1CCOCC1)c(C)n2C", "Reported Result": 628}
{"Compound": "Cc1cc(CN2CCN(CCC#N)CC2)c(O)c(C2(C)CCCCC2)c1", "Reported Result": 527}
{"Compound": "CC(=O)c1cc(Cl)ccc1OC(=O)c1ccco1", "Reported Result": 475}
{"Compound": "CCOc1ccc2[nH]c(=O)c(C(c3nnnn3Cc3ccco3)N3CCC(C)CC3)cc2c1 (stereo unspecified)", "Reported Result": 218}
{"Compound": "Fc1ccc(-n2c(Cc3ccccc3)nnc2SCc2nc(-c3cccs3)no2)cc1", "Reported Result": 466}
{"Compound": "CCOc1ccc2c(c1)c1nnc(SCC(=O)N3CCC(C)CC3)nc1n2C", "Reported Result": 432}
{"Compound": "COC(=O)CSc1nnc(C)c(=O)[nH]1", "Reported Result": 609}
{"Compound": "COC(=O)C(NC(=O)c1ccccc1)(Nc1nccs1)C(F)(F)F (stereo unspecified)", "Reported Result": 677}
{"Compound": "Cc1ccccc1Cc1c(C)nc2c(C(=O)N3CCN(Cc4ccc5c(c4)OCO5)CC3)cnn2c1C", "Reported Result": 631}
{"Compound": "Cc1nnc(SCC(=O)Nc2nccs2)s1", "Reported Result": 501}
{"Compound": "COc1cccc(/C=N/n2c(C)nc3ccccc32)c1OC", "Reported Result": 431}
{"Compound": "Cn1c(=O)c2c(nc(NCCCO)n2Cc2cccc(C(F)(F)F)c2)n(C)c1=O", "Reported Result": 652}
{"Compound": "COc1ccc(-c2nc(CSCC(=O)NCc3ccc4c(c3)OCO4)c(C)o2)cc1OC", "Reported Result": 477}
{"Compound": "CCC1CCCCN1C(=O)Cn1c(C(=O)OC)cc2sc(Cl)cc21 (stereo unspecified)", "Reported Result": 505}
{"Compound": "COc1cc(Cn2ccnc2)c(OC)cc1Cn1ccnc1", "Reported Result": 588}
{"Compound": "Cc1ccc2nc(NC(=O)C3CCCN(S(=O)(=O)c4cnc[nH]4)C3)sc2c1 (stereo unspecified)", "Reported Result": 567}
{"Compound": "COc1cccc(CNC(=O)C2CCN(C(=O)N(C)C)CC2)c1", "Reported Result": 569}
{"Compound": "C=CCn1c(SCn2nnc3ccccc3c2=O)nnc1-c1ccc(Br)cc1", "Reported Result": 447}
{"Compound": "Cc1ccc(OCC(=O)N(C)CCc2ccccn2)cc1", "Reported Result": 475}
{"Compound": "Cc1cccc2cc(CN(CC3CCCO3)C(=O)c3cnccn3)c(=O)[nH]c12 (stereo unspecified)", "Reported Result": 257}
{"Compound": "CC(C)(C)NC(=O)CSc1nnc(-c2ccccn2)n1-c1ccccc1", "Reported Result": 588}
{"Compound": "CCOC(=O)c1sc2nc(NC(=O)C3CCCCC3)sc2c1C", "Reported Result": 570}
{"Compound": "Cn1c(=O)c2nc(Cl)n(Cc3ccc(Cl)cc3Cl)c2n(C)c1=O", "Reported Result": 719}
{"Compound": "Cn1cccc1Cc1nnc(SCC(=O)Nc2ccc(F)cc2)n1-c1ccc(F)cc1", "Reported Result": 843}
{"Compound": "CC(C)c1ccc(O)c(N)c1", "Reported Result": 660}
{"Compound": "N#Cc1ccccc1Cn1c(=O)n(Cc2ccc(C(=O)NCc3ccco3)cc2)c(=O)c2sccc21", "Reported Result": 865}
{"Compound": "Cc1ccc(Cn2ccc(NC(=O)c3cc(-c4cccs4)on3)n2)cc1", "Reported Result": 407}
{"Compound": "COc1ccc(C)cc1-n1nnnc1SCC(=O)Nc1cc(C)on1", "Reported Result": 452}
{"Compound": "CCCc1cc(NCCN2CCOCC2)n2c(nc3ccccc32)c1C#N", "Reported Result": 472}
